assay: In vitro stimulation of 2-Deoxyglucose uptake in L6 myocytes from rat skeletal myoblasts at a concentration of 10 uM; type: functional
Here the recorded 2-DG uptake stimulation is given for each entry.

- molecule: "O=C1NC(=O)C(Cc2ccc3c(c2)CCC(Cc2ccc(OCc4ccccc4)cc2)O3)S1 (stereo not given)"
  2-DG uptake stimulation: 1.53
- molecule: "O=C1NC(=O)C(Cc2ccc3c(c2)CCC(Cc2ccccc2)O3)S1 (stereo not given)"
  2-DG uptake stimulation: 1.29
- molecule: "O=C1NC(=O)C(Cc2ccc3c(c2)CC(CC2CCCCC2)O3)S1 (stereo not given)"
  2-DG uptake stimulation: 1.39
- molecule: "COc1ccc(CC2CCc3cc(CC4SC(=O)NC4=O)ccc3O2)cc1 (stereo not given)"
  2-DG uptake stimulation: 1.15
- molecule: "O=C1NC(=O)C(Cc2ccc3c(c2)CCC2(CCCC2)O3)S1 (stereo not given)"
  2-DG uptake stimulation: 1.06
- molecule: "CCC1(CC)CCc2cc(CC3SC(=O)NC3=O)ccc2O1 (stereo not given)"
  2-DG uptake stimulation: 1.33
- molecule: "O=C1NC(=O)C(Cc2ccc3c(c2)CC[C@H](Cc2ccccc2)O3)S1 (stereo not given in full) [ENGLITAZONE]"
  2-DG uptake stimulation: 0.91
- molecule: "O=C1NC(=O)C(Cc2ccc3c(c2)CCC(Cc2ccccc2)(Cc2ccccc2)O3)S1 (stereo not given)"
  2-DG uptake stimulation: 0.86
- molecule: "O=C1NC(=O)C(Cc2ccc3c(c2)CCC2(CCCCC2)O3)S1 (stereo not given)"
  2-DG uptake stimulation: 1.52
- molecule: "CC1(COc2ccc(CC3SC(=O)NC3=O)cc2)CCCCC1 (stereo not given) [CIGLITAZONE]"
  2-DG uptake stimulation: 1.02
